molecular target: PI3Kα (Homo sapiens, UniProt P42336); assay: PI3K-alpha fluorescence polarization assay; assay type: biochemical; details: read-out: PI3Kα Median IC50
Sequence (P42336 whole entry, species assumed): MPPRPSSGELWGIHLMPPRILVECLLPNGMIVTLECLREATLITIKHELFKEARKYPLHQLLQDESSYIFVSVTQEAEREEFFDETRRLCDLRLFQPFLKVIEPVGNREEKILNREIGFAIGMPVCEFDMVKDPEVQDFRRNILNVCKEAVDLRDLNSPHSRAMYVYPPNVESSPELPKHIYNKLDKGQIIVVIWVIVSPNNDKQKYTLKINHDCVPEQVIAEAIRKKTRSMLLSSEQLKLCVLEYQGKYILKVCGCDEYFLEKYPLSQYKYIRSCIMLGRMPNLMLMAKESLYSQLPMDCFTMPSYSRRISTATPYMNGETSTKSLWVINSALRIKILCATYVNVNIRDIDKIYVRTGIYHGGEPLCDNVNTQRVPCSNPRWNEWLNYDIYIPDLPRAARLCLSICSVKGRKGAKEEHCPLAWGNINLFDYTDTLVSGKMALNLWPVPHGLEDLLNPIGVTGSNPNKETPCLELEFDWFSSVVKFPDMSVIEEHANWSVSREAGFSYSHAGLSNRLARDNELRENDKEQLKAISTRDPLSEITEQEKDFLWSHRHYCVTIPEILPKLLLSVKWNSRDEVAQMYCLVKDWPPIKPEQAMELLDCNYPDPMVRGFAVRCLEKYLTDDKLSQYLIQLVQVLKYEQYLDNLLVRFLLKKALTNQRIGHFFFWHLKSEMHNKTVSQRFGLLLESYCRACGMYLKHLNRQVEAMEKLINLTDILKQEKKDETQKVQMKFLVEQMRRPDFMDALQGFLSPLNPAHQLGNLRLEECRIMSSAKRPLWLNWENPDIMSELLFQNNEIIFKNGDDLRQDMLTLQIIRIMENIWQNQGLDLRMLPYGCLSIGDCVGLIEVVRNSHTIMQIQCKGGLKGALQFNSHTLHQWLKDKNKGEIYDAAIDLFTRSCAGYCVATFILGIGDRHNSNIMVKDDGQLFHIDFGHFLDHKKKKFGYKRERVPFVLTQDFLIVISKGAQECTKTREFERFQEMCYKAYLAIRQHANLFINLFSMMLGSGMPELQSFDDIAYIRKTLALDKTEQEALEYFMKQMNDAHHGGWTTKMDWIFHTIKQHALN
Sequence (P27986 whole entry partner, species assumed): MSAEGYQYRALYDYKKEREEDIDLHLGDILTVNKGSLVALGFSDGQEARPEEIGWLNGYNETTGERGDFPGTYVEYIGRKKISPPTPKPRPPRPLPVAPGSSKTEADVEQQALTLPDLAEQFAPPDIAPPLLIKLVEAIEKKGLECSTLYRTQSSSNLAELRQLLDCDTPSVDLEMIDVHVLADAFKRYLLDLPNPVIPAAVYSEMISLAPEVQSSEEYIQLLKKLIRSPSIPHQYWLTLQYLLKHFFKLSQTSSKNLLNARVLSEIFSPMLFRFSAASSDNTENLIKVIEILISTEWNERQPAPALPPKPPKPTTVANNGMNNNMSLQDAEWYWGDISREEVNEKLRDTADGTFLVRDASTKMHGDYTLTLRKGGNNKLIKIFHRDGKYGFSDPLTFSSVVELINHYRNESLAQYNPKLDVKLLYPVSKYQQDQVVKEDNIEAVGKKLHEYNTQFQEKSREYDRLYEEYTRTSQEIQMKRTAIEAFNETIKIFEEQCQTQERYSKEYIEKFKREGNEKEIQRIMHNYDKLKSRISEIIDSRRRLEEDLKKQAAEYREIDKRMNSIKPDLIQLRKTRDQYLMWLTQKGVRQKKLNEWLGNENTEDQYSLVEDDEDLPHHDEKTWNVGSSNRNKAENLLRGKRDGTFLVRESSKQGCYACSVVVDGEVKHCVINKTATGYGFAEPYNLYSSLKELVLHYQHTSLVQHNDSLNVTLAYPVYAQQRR
Property: IC50 (nM)

The following compounds have reported results that may help.
[
  {
    "Compound": "Cn1cc(/C=C2\\Oc3cccc(O)c3C2=O)c2c(N3CCC(C(=O)N4C5CCCC4COC5)CC3)ccnc21",
    "Endpoint Unit": "nM",
    "IC50": 67
  },
  {
    "Compound": "Cn1cc(/C=C2\\Oc3cccc(O)c3C2=O)c2c(N3CCC(CN)CC3)ccnc21",
    "Endpoint Unit": "nM",
    "IC50": 155
  },
  {
    "Compound": "CC(=O)Nc1ccc2c(c1)C(=O)/C(=C/c1cn(C)c3nccc(-c4ccccc4)c13)O2",
    "Endpoint Unit": "nM",
    "IC50": 1390
  },
  {
    "Compound": "CCn1cc(/C=C2\\Oc3cccc(O)c3C2=O)c2c(-c3ccccc3)ccnc21",
    "Endpoint Unit": "nM",
    "IC50": 8490
  },
  {
    "Compound": "COc1ccc2c(n1)c(C=C1Oc3cc(O)cc(O)c3C1=O)cn2C",
    "Endpoint Unit": "nM",
    "IC50": 506
  },
  {
    "Compound": "CN(C)CCCN1CCN(c2ccnc3c2c(/C=C2\\Oc4cccc(O)c4C2=O)cn3C)CC1",
    "Endpoint Unit": "nM",
    "IC50": 286
  }
]

P. CCC1(CC)CN(c2ccnc3c2c(/C=C2\Oc4ccc(NC(=O)Nc5cccnc5)cc4C2=O)cn3C)CCO1
Q. CNC(=O)Nc1ccc2c(c1)C(=O)/C(=C/c1cn(C)c3nccc(N4CC5CC4CO5)c13)O2 (stereo not shown)
input: Between P and Q , which one has the lower reported IC50 value? Identify your selection by its label.
output: Q
(Q: 275 nM, P: 721 nM)

P. C[C@@H]1CN(C(=O)C2CCN(c3ccnc4c3c(/C=C3\Oc5cccc(O)c5C3=O)cn4C)CC2)C[C@H](C)O1
Q. Cn1c(-c2ccccc2)c(/C=C2\Oc3cccc(O)c3C2=O)c2cccnc21
input: Which one would you say has the larger IC50 value: P , or Q ? Identify your selection by its label.
output: Q
(Q: 3670 nM, P: 223 nM)

I. COCCN(C)C(=O)C1CCN(c2ccnc3c2c(/C=C2\Oc4ccc(NC(=O)Nc5cccnc5)cc4C2=O)cn3C)CC1
II. CN(C)C(=O)C1CCN(c2ccnc3c2c(/C=C2\Oc4ccc(NC(=O)Nc5ccc(N6CCOCC6)cc5)cc4C2=O)cn3C)CC1
input: Between I and II , which one has the lower reported IC50 value? Identify your selection by its label.
output: I

----------
molecular target: PI3Kα (Homo sapiens, UniProt P42336)
Property: IC50 (nM)

The following molecules have reported results that may help.
[
  {
    "Molecule": "Cn1cc(/C=C2\\Oc3cc(O)cc(O)c3C2=O)c2c(/C=C/c3ccccc3)ccnc21 [Compound 51]",
    "IC50, nM": 47
  },
  {
    "Molecule": "Cn1cc(/C=C2\\Oc3ccc(NC(=O)Nc4cccnc4)cc3C2=O)c2c(N3CCC(C(=O)N4C5CCCC4COC5)CC3)ccnc21 [Compound 309]",
    "IC50, nM": 164
  }
]

1. Cn1cc(/C=C2\Oc3ccc(N)cc3C2=O)c2c(-c3ccccc3)ccnc21 [Compound 58]
2. Cn1cc(/C=C2\Oc3cccc(O)c3C2=O)c2c(-c3cccc(O)c3)ccnc21 [Compound 125]
input: Which one would you say has the larger IC50 value: 1 , or 2 ? Identify your selection by its label.
output: 1
(1: 199 nM, 2: 43 nM)

----------
These molecules were tested on PI3Kα (Homo sapiens); pIC50 is the recorded read-out.
pIC50: −log10 of the molar value.
Property: pIC50

The following molecules have reported results that may help.
[
  {
    "Molecule": "Cn1cc(/C=C2\\Oc3cccc(O)c3C2=O)c2c(-c3ccc(N4CC5CCC(C4)O5)cc3)ccnc21",
    "Target Under Test": "PI3Kα (Homo sapiens)",
    "Value Measured": 7.13
  },
  {
    "Molecule": "CN1CCN(C(=O)c2ccc(-c3ccnc4c3c(/C=C3\\Oc5cccc(O)c5C3=O)cn4C)cc2)CC1",
    "Target Under Test": "PI3Kα (Homo sapiens)",
    "Value Measured": 7.15
  }
]

I. COCCC1CN(C(=O)c2ccc(-c3ccnc4c3c(/C=C3\Oc5cccc(O)c5C3=O)cn4C)cc2)CCO1 (stereo not shown)
II. Cn1cc(/C=C2\Oc3ccc(O)cc3C2=O)c2c(-c3ccccc3)ccnc21
input: Between I and II , which one has the lower reported pIC50 value? Identify your selection by its label.
output: II

----------
pIC50: −log10 of the molar value.
These compounds were tested on PI3Kγ (Homo sapiens, UniProt P48736); pIC50 is the recorded read-out.
Sequence (P48736 whole entry, species assumed): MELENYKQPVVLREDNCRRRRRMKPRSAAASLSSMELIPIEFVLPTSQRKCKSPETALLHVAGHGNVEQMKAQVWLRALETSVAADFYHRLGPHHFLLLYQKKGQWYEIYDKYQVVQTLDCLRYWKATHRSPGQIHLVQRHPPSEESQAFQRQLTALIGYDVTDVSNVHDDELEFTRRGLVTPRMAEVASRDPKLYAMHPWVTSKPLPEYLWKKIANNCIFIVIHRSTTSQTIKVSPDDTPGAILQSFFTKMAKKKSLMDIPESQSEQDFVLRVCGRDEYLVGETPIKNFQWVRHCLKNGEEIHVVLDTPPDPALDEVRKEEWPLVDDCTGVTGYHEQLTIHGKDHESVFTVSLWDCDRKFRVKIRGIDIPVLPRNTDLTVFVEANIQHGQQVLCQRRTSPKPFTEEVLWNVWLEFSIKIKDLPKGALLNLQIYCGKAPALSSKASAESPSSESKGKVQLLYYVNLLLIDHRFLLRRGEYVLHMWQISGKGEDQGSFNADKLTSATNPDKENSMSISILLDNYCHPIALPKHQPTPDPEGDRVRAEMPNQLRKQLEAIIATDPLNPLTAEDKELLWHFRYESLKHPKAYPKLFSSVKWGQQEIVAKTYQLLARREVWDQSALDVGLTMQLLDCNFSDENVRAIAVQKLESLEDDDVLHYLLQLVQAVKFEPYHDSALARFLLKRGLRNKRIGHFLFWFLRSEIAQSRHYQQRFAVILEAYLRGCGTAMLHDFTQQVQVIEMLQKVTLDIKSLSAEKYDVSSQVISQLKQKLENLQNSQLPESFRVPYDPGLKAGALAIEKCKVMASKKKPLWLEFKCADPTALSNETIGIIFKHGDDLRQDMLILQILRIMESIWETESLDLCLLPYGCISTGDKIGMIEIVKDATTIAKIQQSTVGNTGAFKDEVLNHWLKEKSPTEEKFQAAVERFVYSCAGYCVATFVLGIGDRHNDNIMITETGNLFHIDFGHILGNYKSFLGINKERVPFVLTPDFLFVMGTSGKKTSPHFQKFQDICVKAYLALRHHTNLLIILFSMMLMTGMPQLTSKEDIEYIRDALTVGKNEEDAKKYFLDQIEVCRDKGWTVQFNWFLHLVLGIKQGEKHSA
Property: pIC50

The following compounds have reported results that may help.
[
  {
    "Structure Notation": "Cn1cc(/C=C2\\Oc3cccc(O)c3C2=O)c2c(-c3ccc(N4CCOCC4)nc3)ccnc21",
    "Target Under Test": "PI3Kγ (Homo sapiens, UniProt P48736)",
    "pIC50": 6.55
  },
  {
    "Structure Notation": "CN1CCN(c2ccnc3c2c(/C=C2\\Oc4ccc(NC(=O)Nc5cccnc5)cc4C2=O)cn3C)CC1",
    "Target Under Test": "PI3Kγ (Homo sapiens, UniProt P48736)",
    "pIC50": 6.32
  },
  {
    "Structure Notation": "Cn1cc(/C=C2\\Oc3cccc(O)c3C2=O)c2c(N3CCC(C(=O)N4CC5CCC(C4)O5)CC3)ccnc21",
    "Target Under Test": "PI3Kγ (Homo sapiens, UniProt P48736)",
    "pIC50": 6.88
  }
]

P. Cn1cc(/C=C2\Oc3cc(O)cc(O)c3C2=O)c2c(-c3ccc(S(N)(=O)=O)cc3)ccnc21
Q. Cn1cc(C=C2Oc3ccc(NC(=O)Nc4cccnc4)cc3C2=O)c2c(N3CCC(C(=O)N4CC=CC4)CC3)ccnc21
input: Between P and Q , which one has the lower reported pIC50 value? Identify your selection by its label.
output: Q
(Q: 5.76, P: 7.24)

----------
These compounds were tested on PI3Kγ (Homo sapiens, UniProt P48736); IC50 is the recorded read-out.
Property: IC50 (µM)

[
  {
    "Structure Notation": "Cn1cc(/C=C2\\Oc3cccc(O)c3C2=O)c2c(N3CCC(C(=O)NCCO)CC3)ccnc21",
    "Endpoint Unit": "µM",
    "Value Measured": 0.094
  }
]

P. Cn1cc(/C=C2\Oc3ccc(NC(=O)Nc4cccnc4)cc3C2=O)c2c(-c3ccc(C(=O)N4CCOCC4)cc3)ccnc21
Q. Cn1cc(/C=C2\Oc3cc(O)cc(O)c3C2=O)c2c(-c3ccc(C(N)=NO)cc3)ccnc21
R. Cn1cc(/C=C2\Oc3ccc(NC(=O)Nc4cccnc4)cc3C2=O)c2c(N3CCC(C(=O)NCCO)CC3)ccnc21
input: With regard to IC50, arrange the entries in ascending order, please. Reply: labels, ordered per the request.
output: Q, P, R
(Q: 0.044 µM, P: 0.652 µM, R: 1.14 µM)

----------
biological target: PI3Kα (Homo sapiens, UniProt P42336); test: PI3K-alpha fluorescence polarization assay; format: biochemical; details: read-out: PI3Kα Median IC50
pIC50: −log10 of the molar value.
Property: pIC50

The following molecules have reported results that may help.
[
  {
    "Structure Notation": "Cn1cc(/C=C2\\Oc3cccc(O)c3C2=O)c2c(-c3cccc(S(C)(=O)=O)c3)ccnc21",
    "pIC50": 7.04
  },
  {
    "Structure Notation": "Cn1cc(/C=C2\\Oc3cc(O)cc(O)c3C2=O)c2c(-c3ccc(Oc4ccccc4)cc3)ccnc21",
    "pIC50": 6.79
  },
  {
    "Structure Notation": "O=C1C(=Cc2cn(CCCN3CCOCC3)c3ncccc23)Oc2cc(O)cc(O)c21",
    "pIC50": 6.04
  },
  {
    "Structure Notation": "Cn1cc(/C=C2\\Oc3ccc(NC(=O)Nc4cccnc4)cc3C2=O)c2c(N3C4CCCC3COC4)ccnc21",
    "pIC50": 5.65
  }
]

1. CN(C)C(=O)C1CCN(c2ccnc3c2c(/C=C2\Oc4ccc(NC(=O)Nc5cccnc5)cc4C2=O)cn3C)CC1
2. Cn1cc(/C=C2\Oc3ccc(NC(=O)Nc4cccnc4)cc3C2=O)c2c(N3CCC(C(=O)N4CCCCC4)CC3)ccnc21
3. CN1CCN(CCCn2cc(C=C3Oc4c(ccc(O)c4O)C3=O)c3cccnc32)CC1
4. Cn1cc(/C=C2\Oc3ccc(Br)cc3C2=O)c2c(-c3ccccc3)ccnc21
input: With regard to pIC50, arrange the entries in ascending order, please. Reply: labels, ordered per the request.
output: 4, 1, 2, 3

Data provenance is patent US20090298820A1.
